# TEST: protein stability index of a GFP-peptide fusion (yeast GPS) (PSI 1-4); higher = more stable; sorted into four equal gates, so the index is relative within each strain
# MEASUREMENT SETUP: ubr1∆
Could you label it condition met if measured protein stability index is 3 or higher, and condition not met otherwise?

Example entries and their recorded answers appear below.
VTNNVEEGEFIIDLYSL [TAF14] :: condition met
SSHLSDNDFIINDFKKI [POP5] :: condition not met
NEEAEARRLKNRAARDR [RPL19A] :: condition met
ELSIRFPQYKLTTFANQ [ARP7] :: condition not met

Check the entry GPANNPNEFMQFKSKEV [PRP8] : does protein stability index equal or exceed 3? condition met

Moving on to the next sequence: NGGKFSKSNLIHNYDSK [RGR1] condition not met

Moving on to the next sequence: GDAAPAEEAAAEEEEES [RPP0] condition met

Moving on to the next sequence: MTTQQEEQRSDTKNSKS [ISW2] condition met

Moving on to the next sequence: KDERDTWIHSEIEELKS [SMC3] condition met

Moving on to the next sequence: HWLQLAKGVYRPNGRKD [POP1] condition met

Moving on to the next sequence: YQKLFSQFINDHILFTK [SRB8] condition not met

Moving on to the next sequence: LLLAAQIVSYCSNNKNS [SSN2] condition not met

Moving on to the next sequence: MVNIGLHNLNEYQIVYY [RGR1] condition not met

Moving on to the next sequence: IMDNFLERTAIELKTDW [RPN1] condition not met

Moving on to the next sequence: TKNIPITHRDLHYDKDY [SSN8] condition not met

Source: the supplement of paper PMC9732359
